- measured-target: HNF4alpha2 (COS-7 nuclear extract) (Homo sapiens, UniProt P41235 1-474)
- Sequence: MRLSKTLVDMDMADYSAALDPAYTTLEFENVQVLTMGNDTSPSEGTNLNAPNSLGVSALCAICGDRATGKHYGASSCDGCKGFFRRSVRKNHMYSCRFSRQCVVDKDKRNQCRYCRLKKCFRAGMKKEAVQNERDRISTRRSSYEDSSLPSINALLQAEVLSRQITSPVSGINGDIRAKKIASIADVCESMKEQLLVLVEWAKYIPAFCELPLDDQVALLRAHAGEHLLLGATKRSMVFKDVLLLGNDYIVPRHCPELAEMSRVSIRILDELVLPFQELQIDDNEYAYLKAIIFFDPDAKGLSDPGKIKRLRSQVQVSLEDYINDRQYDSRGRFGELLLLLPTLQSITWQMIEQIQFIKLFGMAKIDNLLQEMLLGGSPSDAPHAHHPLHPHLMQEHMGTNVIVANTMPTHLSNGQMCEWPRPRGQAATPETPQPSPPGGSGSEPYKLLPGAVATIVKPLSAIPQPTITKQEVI
- protocol-description: protein-binding microarray; COS-7 nuclear extract on double-stranded Agilent 4x180k PBM; binding buffer, salt, pH and temperature not given in the material; high values mean tight binding
- assay-setup: chain copies: 2; label: 3' end of strand 1 on the slide; dsDNA, one strand shown
Whole data set: some 18,000 sequences, median “log2 normalized intensity” near 0.39, cut for the highest 2% near 6.6. The entries come from a sample that favours the highest values as a whole.
attribute-measured: binding signal (log2 normalized intensity)
Reply numerically in log2 normalized intensity, unit not repeated.

Known value: HNF4alpha2 (COS-7 nuclear extract) (Homo sapiens, UniProt P41235 1-474) binding signal of the sequence GAATAATCCCCTCCTGGACTTTGGTCTCATGCCTAGGGAGATTAGAGTATCGGTCGA equals 7.15

Known value: HNF4alpha2 (COS-7 nuclear extract) (Homo sapiens, UniProt P41235 1-474) binding signal of the sequence TTATATCAGAGGAATGTCTGACCAACCTGTGCCTAGGGAGATTAGAGTATCGGTCGA equals 0.0786

Known value: HNF4alpha2 (COS-7 nuclear extract) (Homo sapiens, UniProt P41235 1-474) binding signal of the sequence CTTTGTATAAGCCGTGCAAAGTTCATCCCTGCCTAGGGAGATTAGAGTATCGGTCGA equals 3.24

Known value: HNF4alpha2 (COS-7 nuclear extract) (Homo sapiens, UniProt P41235 1-474) binding signal of the sequence CTCCTGGACTTTGGTCTCATGGGCCTAAACGCCTAGGGAGATTAGAGTATCGGTCGA equals 4.65

Known value: HNF4alpha2 (COS-7 nuclear extract) (Homo sapiens, UniProt P41235 1-474) binding signal of the sequence GACATGCAGTATGGGGACTTTGGACTCCTGGCCTAGGGAGATTAGAGTATCGGTCGA equals 7.53

Numbers sourced from paper PMC10726135.
